# System: Plasmodium berghei
# Protocol summary: Screen against P. berghei liver stage (PbLuc), transformed with Luciferase, at 2uM
# Type: functional, HepG2
# Test settings: tested at 2 uM
Hit rate of the full screen: of about 68,000 compounds, about 2,700 (4%) showed an effect of 50% or more. The list comes from a sample in which strong results are over-represented; it also holds close analogues and randomly drawn compounds.
One threshold, 10%, splits the recorded INHIBITION values: lower ones are Satisfied, equal or higher ones are Not satisfied.

Please review the entries below; each comes with its answer.
- Compound: "O=C(c1cnc(O)cc1O)N1CCCC(CCc2ccccc2F)C1 (configuration not stated)"
  Category: "Not satisfied"
- Compound: "Cc1cnc(N)c(C(=O)C2CCN(C(=O)c3ccccc3F)CC2)c1"
  Category: "Not satisfied"
- Compound: "Cc1nc(C)n(CC2CCCCN2CC(=O)NC(C2CC2)C2CC2)n1 (configuration not stated)"
  Category: "Not satisfied"

Enquiry: Bench note: check whether "O=c1cc(CN(CCO)C2CC2)nc2ccc(Cl)cn12" shows INHIBITION below 10%
Return: Satisfied

Enquiry: Bench note: check whether CC1=C(C(=O)NCCc2n[nH]c3c2CCCC3)C(C)NC(=O)N1 (configuration not stated) shows INHIBITION below 10%
Return: Satisfied

Enquiry: Bench note: check whether "CN(C)C(=O)[C@@H]1C[C@@H]2CCN(Cc3ccncc3)C[C@@H]2O1" shows INHIBITION below 10%
Return: Not satisfied

Enquiry: Bench note: check whether COC(=O)c1sccc1S(=O)(=O)NCCC(O)c1ccco1 (configuration not stated) shows INHIBITION below 10%
Return: Satisfied

Enquiry: Bench note: check whether "CC(C)c1nn(C)c(N(C)C)c1CNCc1ccc(N(C)C)nc1" shows INHIBITION below 10%
Return: Satisfied

Enquiry: Bench note: check whether "Cc1cnc(N)c(C(=O)C2CCN(C(=O)C3CCC3)CC2)c1" shows INHIBITION below 10%
Return: Not satisfied

Enquiry: Bench note: check whether "CCc1nn(C)c(Cl)c1CN1CCN(c2ccc(C(N)=O)cn2)CC1" shows INHIBITION below 10%
Return: Not satisfied

----------
# Test system: Plasmodium berghei
# Protocol summary: Screen against P. berghei liver stage (PbLuc), transformed with Luciferase, at 2uM
# Format: functional, HepG2
# Test settings: tested at 2 uM
Out of some 68,000 compounds screened, about 2,700 (4%) showed an effect of 50% or more. Only a selection was taken, and strong results are over-represented in it overall.
Quick rule for you: INHIBITION at 30% or higher means yes, lower means no.

- Compound: "CC1CCN(C(=O)CSCCN2CCOCC2)CC1"
  Category: "no"
- Compound: "CCCc1noc(CNc2ccc(C(=O)N3CCCC3)cc2C)n1"
  Category: "no"
- Compound: "COCCC(=O)N1CC[C@@H](N(C)C)[C@@H]1Cc1ccccc1"
  Category: "no"
- Compound: "c1cncc(CN2Cc3nccn3CC(Cn3cccn3)C2)c1 (centres undefined)"
  Category: "no"

Kindly consider the entry below.
Enquiry: Please tell me: is the compound Cc1cccc(-c2noc(CNC(C)Cn3cc(C)cn3)n2)c1 (centres undefined) at or over 30% in terms of INHIBITION?
Return: no

----------
# System: Plasmodium berghei
# Protocol summary: Screen against P. berghei liver stage (PbLuc), transformed with Luciferase, at 2uM
# Type: functional, HepG2
# Test settings: tested at 2 uM
Screen size: about 68,000 compounds; about 2,700 (4%) showed an effect of 50% or more. Many of the other results were omitted from the sample, so strong results are more common in it than they were.
One threshold, 20%, splits the recorded INHIBITION values: lower ones are satisfied, equal or higher ones are not satisfied.

Please review the entries below; each comes with its answer.
- Compound: "O=C(Cc1ccc2c(c1)OCCO2)N1CCCC(n2cncn2)C1 (centres undefined)"
  Category: "satisfied"
- Compound: "O=C(Cc1ccc2c(c1)CCO2)N1CCCC(n2cccn2)C1 (centres undefined)"
  Category: "not satisfied"
- Compound: "O=C(Cc1ccc2c(c1)CCC2)N1CCCC(n2cccn2)C1 (centres undefined)"
  Category: "satisfied"
- Compound: "CC1CCCCN1C(=O)COc1nc(C(C)(C)C)no1 (centres undefined)"
  Category: "not satisfied"
- Compound: "N[C@H]1CN(CCOc2ccc(F)cc2)C[C@@H]1C1CC1"
  Category: "not satisfied"
- Compound: "Cc1cc(NCCO)nc(-c2ccccc2O)n1"
  Category: "satisfied"
- Compound: "Cc1noc(C)c1S(=O)(=O)N(CC(N)=O)CC(C)C"
  Category: "not satisfied"
- Compound: "CSCC(CCO)NC(=O)Nc1ccc(Br)cc1 (centres undefined)"
  Category: "satisfied"

Enquiry: Bench note: check whether O=C(Cc1ccc2c(c1)OCCO2)N1CCCC(n2cccn2)C1 (centres undefined) shows INHIBITION below 20%
Return: not satisfied

Enquiry: Bench note: check whether Cc1cnn(C2CCCN(C(=O)Cc3ccc4c(c3)CCO4)C2)c1 (centres undefined) shows INHIBITION below 20%
Return: satisfied

Enquiry: Bench note: check whether "CCCc1nc(C)cc(N2Cc3cnn(CCO)c3C2)n1" shows INHIBITION below 20%
Return: satisfied

----------
# Test system: Plasmodium berghei
# Protocol summary: Screen against P. berghei liver stage (PbLuc), transformed with Luciferase, at 2uM
# Format: functional, HepG2
# Test settings: tested at 2 uM
Screen size: about 68,000 compounds; about 2,700 (4%) showed an effect of 50% or more. Shown is part of a subset that was picked to be rich in strong results.
Endpoint name: INHIBITION (%)
Write it as a number; the unit % goes unstated.

Solved cases (10 shown):
- Compound: "Cc1noc(-c2ccc(N3CCC(C(=O)N4CCCC4)CC3)nc2)n1"
  INHIBITION, %: 51.96
- Compound: "Cc1noc(-c2ccc(N3CCCC(C(N)=O)C3)nc2)n1 (centres undefined)"
  INHIBITION, %: 22.86
- Compound: "Cc1noc(-c2ccc(N3CCCC(C(=O)O)C3)nc2)n1 (centres undefined)"
  INHIBITION, %: 25.69
- Compound: "CSCc1nc(CCNC(=O)C(N)c2c(C)n[nH]c2C)cs1 (centres undefined)"
  INHIBITION, %: -4.29
- Compound: "CC1CN(C)CCN1C(=O)c1ccn(-c2ccccc2)n1 (centres undefined)"
  INHIBITION, %: 23.42
- Compound: "COc1ccc(CN2CCC3(CCN(c4cccnc4)C3=O)C2)cc1 (centres undefined)"
  INHIBITION, %: 0.83
- Compound: "COCc1nnc(-c2cccc(C(=O)OC(C)C)c2)o1"
  INHIBITION, %: 33.9
- Compound: "CCO[C@H]1COC[C@@H]1NC(=O)c1c[nH]nc1C1CCCCC1"
  INHIBITION, %: -73.93
- Compound: "CN(C)C(CNCc1nc(-c2ccsc2)no1)c1ccsc1 (centres undefined)"
  INHIBITION, %: 6.82
- Compound: "Cc1noc(-c2ccc(N3CCCC(C(=O)c4nccn4C)C3)nc2)n1 (centres undefined)"
  INHIBITION, %: 58.53

Enquiry: Requested read-out: INHIBITION. Entry: Cc1noc(-c2ccc(N3CCCC(C(=O)N4CCSCC4)C3)nc2)n1 (centres undefined)
Return: -13.24

Enquiry: Requested read-out: INHIBITION. Entry: "CN1CCCC[C@@H]2[C@H]1[C@@H](c1ccccc1)CCN2S(=O)(=O)N1CCCC1"
Return: 49.9

Enquiry: Requested read-out: INHIBITION. Entry: "O=C(NCc1nnc2n1CCC2)c1ccc(Br)s1"
Return: 22.39

Enquiry: Requested read-out: INHIBITION. Entry: Cc1cccc(CNC2CCCc3c2cnn3Cc2ccccc2)c1 (centres undefined)
Return: -2.26

Enquiry: Requested read-out: INHIBITION. Entry: "Cc1nc(C(=O)N[C@H]2COC[C@@H]2N2CCCCC2)cs1"
Return: 11.19

Enquiry: Requested read-out: INHIBITION. Entry: Cn1cc(N2CCC3(CCCN(Cc4ccc(F)cc4)C3)C2=O)cn1 (centres undefined)
Return: 51.26

Enquiry: Requested read-out: INHIBITION. Entry: Cc1cc(=O)[nH]cc1C(=O)N1Cc2ccccc2N(C)CC1C (centres undefined)
Return: 47.59

Enquiry: Requested read-out: INHIBITION. Entry: "CC(C)c1noc(CS(=O)(=O)CC(=O)NCCOc2ccccc2)n1"
Return: -38.35

Enquiry: Requested read-out: INHIBITION. Entry: "CCC(=O)N1CCN(c2nc(C)nc3c(C)nn(C)c23)CC1"
Return: 13.72

Enquiry: Requested read-out: INHIBITION. Entry: "COCc1nnc(-c2cccc(C(=O)N(C)CC(C)(C)C)c2)o1"
Return: 62.51

Enquiry: Requested read-out: INHIBITION. Entry: COCC1CN(C(=O)Cc2cccc(F)c2)Cc2ccnn2C1 (centres undefined)
Return: 13.52

Enquiry: Requested read-out: INHIBITION. Entry: "Cc1nc(N2CCN(C(=O)C3CCCC3)CC2)c2c(n1)c(C)nn2C"
Return: -36.89

Enquiry: Requested read-out: INHIBITION. Entry: Cn1cc(N2CCC3(CCCN(Cc4ccoc4)C3)C2=O)cn1 (centres undefined)
Return: 25.4

Enquiry: Requested read-out: INHIBITION. Entry: Cn1ncc2c1CCCC2NCc1cccc(F)c1 (centres undefined)
Return: -33.95

Hey, just so you know, these numbers are from ChEMBL document CHEMBL4513216.
